All values here come from patent US20250250357A1.

Target: T1, human MSLN-FL-his protein (human, UniProt Q13421 296-580)
T1 construct: Made in HEK293E cells, purified on nickel column; it is put last here; also called human MSLN full-length protein; hMSLN-FL-his; not shown: His tag
T1 sequence (Q13421 other isoform, or with tags, fused parts or gaps): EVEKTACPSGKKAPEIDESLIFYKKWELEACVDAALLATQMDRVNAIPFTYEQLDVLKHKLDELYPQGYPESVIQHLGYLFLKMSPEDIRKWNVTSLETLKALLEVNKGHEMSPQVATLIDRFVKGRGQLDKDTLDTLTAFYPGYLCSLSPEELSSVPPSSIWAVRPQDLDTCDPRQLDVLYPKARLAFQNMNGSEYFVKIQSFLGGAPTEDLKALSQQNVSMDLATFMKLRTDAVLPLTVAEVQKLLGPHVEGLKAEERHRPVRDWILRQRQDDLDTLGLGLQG
Test: ELISA on coated antigen, antibody 0.001 nM
Measured Metric: OD450 (OD)
# unit: OD | format: bare number

Completed entries (count: 2):
>>> reported_result("S009-F8-31.22 (antibody, human IgG1, kappa, V domains shown, Human-murine chimeric antibody, human IgG1 heavy and kappa light constant regions) VH: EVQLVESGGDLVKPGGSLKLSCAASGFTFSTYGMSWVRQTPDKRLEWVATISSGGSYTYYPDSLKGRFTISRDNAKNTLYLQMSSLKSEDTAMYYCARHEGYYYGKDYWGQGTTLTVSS VL: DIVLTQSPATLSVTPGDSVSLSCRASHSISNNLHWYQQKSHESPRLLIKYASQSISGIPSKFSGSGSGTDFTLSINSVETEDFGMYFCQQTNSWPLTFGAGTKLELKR")
0.2
>>> reported_result("S009-F8-22.23 (antibody, human IgG1, kappa, V domains shown, Human-murine chimeric antibody, human IgG1 heavy and kappa light constant regions) VH: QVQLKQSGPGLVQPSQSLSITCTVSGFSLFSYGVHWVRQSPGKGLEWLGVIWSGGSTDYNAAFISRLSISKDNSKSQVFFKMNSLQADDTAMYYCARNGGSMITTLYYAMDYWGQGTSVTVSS VL: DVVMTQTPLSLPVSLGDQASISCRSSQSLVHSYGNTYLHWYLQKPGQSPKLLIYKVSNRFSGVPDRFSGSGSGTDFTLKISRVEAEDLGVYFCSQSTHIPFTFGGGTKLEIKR")
0.44

# next binder below
[Q] # OD450 lookup, item S009-F8-27.1 (antibody, human IgG1, kappa, V domains shown, Human-murine chimeric antibody, human IgG1 heavy and kappa light constant regions) VH: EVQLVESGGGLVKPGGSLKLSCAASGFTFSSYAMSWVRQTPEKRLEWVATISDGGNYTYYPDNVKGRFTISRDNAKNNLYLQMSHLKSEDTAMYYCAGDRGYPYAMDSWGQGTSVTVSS VL: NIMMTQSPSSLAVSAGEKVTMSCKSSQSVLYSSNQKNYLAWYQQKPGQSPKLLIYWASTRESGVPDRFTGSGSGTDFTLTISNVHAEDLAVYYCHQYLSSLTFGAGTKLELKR
[A] 0.08
